// EC50, CD112R/CD112 reporter lookup, one value per entry
target.desc: T1, human CD112R on Jurkat CD112R effector cells (human, UniProt Q6DKI7 1-326)
T1 sequence (looked up): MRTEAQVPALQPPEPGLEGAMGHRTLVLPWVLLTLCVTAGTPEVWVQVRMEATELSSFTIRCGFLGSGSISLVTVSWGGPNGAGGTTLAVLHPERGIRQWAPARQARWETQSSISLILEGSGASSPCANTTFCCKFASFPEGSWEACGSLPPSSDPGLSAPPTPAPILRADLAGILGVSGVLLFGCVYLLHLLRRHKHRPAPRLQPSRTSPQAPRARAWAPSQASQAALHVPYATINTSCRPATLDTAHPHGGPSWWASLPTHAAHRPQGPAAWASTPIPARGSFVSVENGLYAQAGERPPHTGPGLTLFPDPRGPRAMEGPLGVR
assay.summary: cell-based or functional assay
Give your result in µg/mL as a bare value.

>>> value("Chi-69 (antibody, V domains shown, chimeric) VH: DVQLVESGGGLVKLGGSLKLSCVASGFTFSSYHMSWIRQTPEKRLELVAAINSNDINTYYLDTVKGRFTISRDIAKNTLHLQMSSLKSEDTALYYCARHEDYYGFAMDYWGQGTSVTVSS VL: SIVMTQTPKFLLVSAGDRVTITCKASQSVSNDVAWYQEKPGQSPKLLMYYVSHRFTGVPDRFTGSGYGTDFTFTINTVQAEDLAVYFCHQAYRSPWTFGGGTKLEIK")
0.0187

Would you kindly share the measured EC50, CD112R/CD112 reporter for Chi-53 (antibody, V domains shown, chimeric) VH: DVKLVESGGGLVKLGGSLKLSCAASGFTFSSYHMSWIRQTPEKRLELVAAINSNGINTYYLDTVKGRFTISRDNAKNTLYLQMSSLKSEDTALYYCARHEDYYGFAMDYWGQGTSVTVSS VL: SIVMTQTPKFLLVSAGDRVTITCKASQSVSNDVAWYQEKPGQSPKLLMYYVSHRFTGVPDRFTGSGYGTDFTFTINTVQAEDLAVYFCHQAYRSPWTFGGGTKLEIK ?
0.0129

May I ask what EC50, CD112R/CD112 reporter has been recorded for Chi-62 (antibody, V domains shown, chimeric) VH: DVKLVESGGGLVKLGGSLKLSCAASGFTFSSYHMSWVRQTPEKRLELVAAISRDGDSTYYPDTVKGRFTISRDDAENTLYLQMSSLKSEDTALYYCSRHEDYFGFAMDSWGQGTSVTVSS VL: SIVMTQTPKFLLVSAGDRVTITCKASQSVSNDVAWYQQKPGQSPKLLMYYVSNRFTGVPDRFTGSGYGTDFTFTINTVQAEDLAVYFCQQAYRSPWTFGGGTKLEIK ?
0.0129

Sample Chi-71 (antibody, V domains shown, chimeric) VH: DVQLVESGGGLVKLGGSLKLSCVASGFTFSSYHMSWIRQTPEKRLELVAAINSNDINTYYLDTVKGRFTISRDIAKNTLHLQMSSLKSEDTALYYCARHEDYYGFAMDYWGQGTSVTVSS VL: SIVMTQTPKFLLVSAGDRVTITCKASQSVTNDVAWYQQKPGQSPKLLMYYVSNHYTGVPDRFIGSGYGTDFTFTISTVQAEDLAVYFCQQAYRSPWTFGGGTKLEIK — what was its EC50, CD112R/CD112 reporter?
0.0194
